Source of measurements: patent US20150376269A1

# study-target: T1, serum resistance-associated protein (SRA) from Trypanosoma brucei rhodesiense, recombinant SRA (SEQ ID NO: … (Trypanosoma brucei rhodesiense, UniProt O96637 31-274))
# T1 construct: also called SRA protein
# T1 sequence: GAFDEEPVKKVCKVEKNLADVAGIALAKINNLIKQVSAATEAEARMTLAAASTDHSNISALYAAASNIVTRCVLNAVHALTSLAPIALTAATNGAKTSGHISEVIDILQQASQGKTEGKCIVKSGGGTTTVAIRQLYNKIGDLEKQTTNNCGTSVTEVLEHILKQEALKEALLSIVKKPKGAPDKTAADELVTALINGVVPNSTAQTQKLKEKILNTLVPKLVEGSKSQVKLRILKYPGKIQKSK
# assay-comment: SPR, mAb captured, pH 4.5, 25C; competitor biotin-mutant apoL1 peptide
readout: % Blocking, Mutant apoL1 peptide (%)
Provide only the numeric value, understood in %.

// query Record request: % Blocking, Mutant apoL1 peptide value, item H2aM10200N (antibody, V domains shown, Hybridoma-derived chimeric antibody, human variable domains and mouse constant domains (mouse Fc, prefix H2aM); also called H2M10200N) VH: QVQLVQSGAEVKKPGSSVKVSCKASGGTFSSYAISWVRQAPGQGLEWMGGIIPFFGTATYAQKFQGRVTITTDESTRTVYMELSSLRYEDTAVYYCARWYSGYGGDFDYWGQGTLVTVSS VL: AIQMTQSPSSLSASVGDRVTITCRASQGIRNDLGWFQQKPGKAPKLLIYAASSLQSGVPSRFSGSGSGTDFTLSISSLQPEDFATYYCLQDYSYPRTFGQGTKVEIK
// result 5

// query Same for H1H10041P (antibody, V domains shown, Fully human antibody with human IgG1 Fc (prefix H1H)) VH: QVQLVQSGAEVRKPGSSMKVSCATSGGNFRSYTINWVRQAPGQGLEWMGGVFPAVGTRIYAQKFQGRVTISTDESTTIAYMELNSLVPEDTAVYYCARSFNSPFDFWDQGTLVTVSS VL: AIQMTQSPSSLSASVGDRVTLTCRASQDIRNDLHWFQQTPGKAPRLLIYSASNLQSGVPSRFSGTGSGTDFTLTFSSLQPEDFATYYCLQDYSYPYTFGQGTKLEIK
// result 5

// query Same for H1H10064P (antibody, V domains shown, Fully human antibody with human IgG1 Fc (prefix H1H)) VH: QVQLVQSGAEVKKPGSSVKVSCKASGGSFSSNVFSWVRQAPGQGLEWMGGIIPIFGSANYAQKFQGRVTITTDESTTTAYMELSSLRSEDTAVYYCAIGGTGPSGYNWNYGAFYIWGQGTMVTVSS VL: DIQMTQSPSSLSASVGDRVTITCRASQGIRNDLGWYQQKPGIAPKRLIYAASSLQSGVPSRFSGSGSGTEFTLTISSLQPEDFATYYCLQHNSYPYTFGQGTKLEIK
// result 11

// query Same for H1H10058P (antibody, V domains shown, Fully human antibody with human IgG1 Fc (prefix H1H)) VH: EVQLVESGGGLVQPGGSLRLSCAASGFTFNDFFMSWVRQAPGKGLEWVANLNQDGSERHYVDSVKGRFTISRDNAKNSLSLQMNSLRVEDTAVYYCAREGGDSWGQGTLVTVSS VL: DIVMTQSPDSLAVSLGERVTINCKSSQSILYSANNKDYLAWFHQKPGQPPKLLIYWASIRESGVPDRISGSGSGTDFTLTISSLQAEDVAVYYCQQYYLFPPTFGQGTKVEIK
// result 5

// query Same for H2aM10204N (antibody, V domains shown, Chimeric antibody, human variable domains and mouse constant domains (mouse Fc, prefix H2aM); also called H2M10204N) VH: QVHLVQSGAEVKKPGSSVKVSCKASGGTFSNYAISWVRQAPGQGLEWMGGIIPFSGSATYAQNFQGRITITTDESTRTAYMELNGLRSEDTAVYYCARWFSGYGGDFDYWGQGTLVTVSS VL: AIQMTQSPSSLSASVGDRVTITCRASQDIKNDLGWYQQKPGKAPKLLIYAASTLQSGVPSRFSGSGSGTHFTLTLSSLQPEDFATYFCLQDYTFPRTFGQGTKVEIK
// result 9
